Sourced from the NIST ThermoML archive (doi:10.1016/j.jct.2019.02.015)

# experimental protocol: refractive index (Na D-line) (dimensionless)
# measurement setup: 308.15 K; 101.33 kPa; Liquid; Standard Abbe refractometry
result type: refractive index

compound: CCCCCCCC(=O)[O-].CCCCCCCC[NH+](CCCCCCCC)CCCCCCCC [trioctylammonium octanoate]
result type: refractive index
numeric result: 1.4447

compound: CCCC(=O)[O-].CCCCCCCC[NH+](CCCCCCCC)CCCCCCCC [trioctylammonium butanoate]
result type: refractive index
numeric result: 1.4417

compound: CCCCCCCC(=O)[O-].CCCCCC[NH+](CCCCCC)CCCCCC [trihexylammonium octanoate]
result type: refractive index
numeric result: 1.4399

compound: CCCCCC(=O)[O-].CCCCCCCC[NH+](CCCCCCCC)CCCCCCCC [trioctylammonium hexanoate]
result type: refractive index
numeric result: 1.4432

compound: CCCC(=O)[O-].CCCCCC[NH+](CCCCCC)CCCCCC [trihexylammonium butanoate]
result type: refractive index
numeric result: 1.4361

compound: CCCCCC(=O)[O-].CCCCCC[NH+](CCCCCC)CCCCCC [trihexylammonium hexanoate]
result type: refractive index
numeric result: 1.4375

###

# measurement setup: 313.15 K; 101.33 kPa; Liquid; Vibrating tube method
result type: mass density (kg/m3)

molecule: CCCCCC(=O)[O-].CCCCCC[NH+](CCCCCC)CCCCCC [trihexylammonium hexanoate]
mass density / kg/m3: 835.33

molecule: CCCCCC(=O)[O-].CCCCCCCC[NH+](CCCCCCCC)CCCCCCCC [trioctylammonium hexanoate]
mass density / kg/m3: 834.1

molecule: CCCC(=O)[O-].CCCCCC[NH+](CCCCCC)CCCCCC [trihexylammonium butanoate]
mass density / kg/m3: 833.22

molecule: CCCCCCCC(=O)[O-].CCCCCC[NH+](CCCCCC)CCCCCC [trihexylammonium octanoate]
mass density / kg/m3: 836.9

molecule: CCCCCCCC(=O)[O-].CCCCCCCC[NH+](CCCCCCCC)CCCCCCCC [trioctylammonium octanoate]
mass density / kg/m3: 835.85

molecule: CCCC(=O)[O-].CCCCCCCC[NH+](CCCCCCCC)CCCCCCCC [trioctylammonium butanoate]
mass density / kg/m3: 831.64

###

# measurement setup: 303.15 K; 101.33 kPa; Liquid; Single path-length method
result type: speed of sound (m/s)

compound: CCCCCC(=O)[O-].CCCCCCCC[NH+](CCCCCCCC)CCCCCCCC [trioctylammonium hexanoate]
numeric result: 1348.5

compound: CCCCCC(=O)[O-].CCCCCC[NH+](CCCCCC)CCCCCC [trihexylammonium hexanoate]
numeric result: 1317.8

compound: CCCC(=O)[O-].CCCCCC[NH+](CCCCCC)CCCCCC [trihexylammonium butanoate]
numeric result: 1308.6

compound: CCCCCCCC(=O)[O-].CCCCCC[NH+](CCCCCC)CCCCCC [trihexylammonium octanoate]
numeric result: 1329.8

compound: CCCCCCCC(=O)[O-].CCCCCCCC[NH+](CCCCCCCC)CCCCCCCC [trioctylammonium octanoate]
numeric result: 1357.6

compound: CCCC(=O)[O-].CCCCCCCC[NH+](CCCCCCCC)CCCCCCCC [trioctylammonium butanoate]
numeric result: 1341.8

###

# measurement setup: 318.15 K; 101.33 kPa; Liquid; Single path-length method
result type: speed of sound (m/s)

compound: CCCCCC(=O)[O-].CCCCCCCC[NH+](CCCCCCCC)CCCCCCCC [trioctylammonium hexanoate]
speed of sound [m/s]: 1296.6
//
compound: CCCCCCCC(=O)[O-].CCCCCCCC[NH+](CCCCCCCC)CCCCCCCC [trioctylammonium octanoate]
speed of sound [m/s]: 1305.7
//
compound: CCCC(=O)[O-].CCCCCC[NH+](CCCCCC)CCCCCC [trihexylammonium butanoate]
speed of sound [m/s]: 1255.5
//
compound: CCCC(=O)[O-].CCCCCCCC[NH+](CCCCCCCC)CCCCCCCC [trioctylammonium butanoate]
speed of sound [m/s]: 1289.6
//
compound: CCCCCCCC(=O)[O-].CCCCCC[NH+](CCCCCC)CCCCCC [trihexylammonium octanoate]
speed of sound [m/s]: 1277.4
//
compound: CCCCCC(=O)[O-].CCCCCC[NH+](CCCCCC)CCCCCC [trihexylammonium hexanoate]
speed of sound [m/s]: 1264.9
